Could you please report measured EC50 for the items listed next?
- System: influenza A virus
- test_summary: microbe, parasite or virus in culture
- Assay type: cell-based
- stated_conditions: Influenza A virus; bDNA viral RNA assay; read-out: EC50

Please fill in: EC50 reported for O=C(O)[C@H]1C2CCC(CC2)[C@@H]1Nc1cncc(-c2n[nH]c3ncc(F)cc23)n1 (racemic) = 34 nM

So for O=C(O)[C@H]1C2CCC(CC2)[C@@H]1Nc1nc(-c2n[nH]c3ncc(F)cc23)c(F)cc1F , the logged EC50 turned out to be 7 nM

----------
- Tested on: influenza A virus
- test_summary: microbe, parasite or virus in culture
- Assay type: cell-based
- stated_conditions: viral RNA 50% of control wells, 18-36 hours; mean all; read-out: bDNA EC50
pEC50: −log10 of the molar value.
test_readout: pEC50

Kindly note the recorded pEC50 for N#Cc1cc(F)c(N[C@H]2C3CCC(CC3)[C@@H]2C(=O)O)cc1-c1n[nH]c2ncc(F)cc12 , which is > 5.48

Noted for O=C(O)[C@H]1C2CCC(CC2)[C@@H]1Nc1nc(-c2n[nH]c3ncc(F)cc23)ccc1F : its pEC50 reads > 5.48

Per the record, O=C(O)[C@H]1C2CCC(CC2)[C@@H]1Nc1nc(-c2n[nH]c3ncc(F)cc23)c(F)cc1F has pEC50 of > 5.48

Entry source: patent US20140005197A1
